- Tested on: KAI1 promoter
- test: KAI1 promoter luciferase reporter assay in transfected Caco2 cells
- Type: cell-based, human
- details: Homo sapiens, Caco-2, 16 h, 1 μM compound, 16 hours, transfected Caco2 cells, luciferase activity relative to DMSO control (=1); read-out: Relative KAI promoter activity
readout kind: fold induction at 1 µM

Prompt: fold induction at 1 µM for CN(C)c1ccc(C(=O)CNC(=O)c2ccc(F)cc2F)cc1 [Example 105] ?
Response: 1.25

Prompt: Entry O=C(COc1ccccc1C(=O)NCC(=O)c1ccccc1)Nc1cccnc1 [Example 208] : reported fold induction at 1 µM = ?
Response: 1.14

Prompt: # input compound: O=C(COc1ccccc1C(=O)NCC(=O)c1ccccc1)NCc1ccc2c(c1)OCO2 [Example 212] ; wanted: its fold induction at 1 µM
Response: 1.01

Prompt: Look up fold induction at 1 µM: CC(Oc1ccccc1)C(=O)NCC(=O)c1ccc(N(C)C)cc1 (stereo not shown) [Example 89]
Response: 1.27
